study-system: T1, human CD30 (commercial, conjugated to digoxigenin) (human, UniProt P28908 19-379, limits assumed, conjugated to digoxigenin (DIG))
T1 sequence (looked up): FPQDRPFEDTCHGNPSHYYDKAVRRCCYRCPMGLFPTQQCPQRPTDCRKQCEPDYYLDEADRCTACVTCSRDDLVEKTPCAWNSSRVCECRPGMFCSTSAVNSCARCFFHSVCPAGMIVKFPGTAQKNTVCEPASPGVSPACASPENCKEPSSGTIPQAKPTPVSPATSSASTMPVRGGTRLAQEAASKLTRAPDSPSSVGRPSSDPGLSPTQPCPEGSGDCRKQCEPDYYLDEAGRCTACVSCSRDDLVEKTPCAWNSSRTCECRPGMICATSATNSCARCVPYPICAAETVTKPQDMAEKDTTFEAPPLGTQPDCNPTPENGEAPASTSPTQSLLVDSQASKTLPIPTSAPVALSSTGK
run-description: AlphaScreen competition
reported-metric: Fold IC50 vs H3/L3 (fold)
Numbers only, in fold.

For orientation, consider the following solved cases.
1. AC10 H3.41/L3 (antibody, IgG1, name in Kabat numbering, V domains shown) VH: QIQLVQSGPEVKKPGASVKVSCKASGYTFTDYYITWVRQAPGQGLEWMGWIYPGSGNTKYNEKFTGRFVFSVDTSASTAYLQISSLKAEDTAVYFCANYGNYWFAYWGQGTLVTVSS VL: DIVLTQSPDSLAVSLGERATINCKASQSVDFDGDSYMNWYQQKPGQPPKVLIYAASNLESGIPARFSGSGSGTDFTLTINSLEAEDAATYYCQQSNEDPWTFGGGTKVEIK
1.38
2. AC10 H3.27/L3 (antibody, IgG1, name in Kabat numbering, V domains shown) VH: QIQLVQSGPEVKKPGASVKVSCKASGYTFTDYYITWVRQAPGQGLEWMGWIYAGSGNTKYNEKFQGRFVFSVDTSASTAYLQISSLKAEDTAVYFCANYGNYWFAYWGQGTLVTVSS VL: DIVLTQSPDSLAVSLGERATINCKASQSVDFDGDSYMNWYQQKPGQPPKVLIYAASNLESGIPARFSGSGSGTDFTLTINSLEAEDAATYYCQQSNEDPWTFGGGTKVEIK
2
3. AC10 H3.62/L3 (antibody, IgG1, name in Kabat numbering, V domains shown) VH: QIQLVQSGPEVKKPGASVKVSCKASGYTFTDYYITWVRQAPGQGLEWMGWIYPGSGNTKYNEKFQGRFVFSVDTSASTAYLQISSLKAEDTAVYFCANYGNYWFALWGQGTLVTVSS VL: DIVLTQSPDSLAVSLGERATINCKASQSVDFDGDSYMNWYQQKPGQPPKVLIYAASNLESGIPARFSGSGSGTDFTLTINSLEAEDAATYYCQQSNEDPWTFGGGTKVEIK
1.22

Items follow; give Fold IC50 vs H3/L3 for each.
1. AC10 H3.44/L3 (antibody, IgG1, name in Kabat numbering, V domains shown) VH: QIQLVQSGPEVKKPGASVKVSCKASGYTFTDYYITWVRQAPGQGLEWMGWIYPGSGNTKYNEKFQGRFVFSRDTSASTAYLQISSLKAEDTAVYFCANYGNYWFAYWGQGTLVTVSS VL: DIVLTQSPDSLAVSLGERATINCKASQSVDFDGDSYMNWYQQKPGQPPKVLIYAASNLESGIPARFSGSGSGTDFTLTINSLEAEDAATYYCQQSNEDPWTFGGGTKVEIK
2. AC10 H3.14/L3 (antibody, IgG1, name in Kabat numbering, V domains shown) VH: QIQLVQSGPEVKKPGASVKVSCKASGYTFTDYYMTWVRQAPGQGLEWMGWIYPGSGNTKYNEKFQGRFVFSVDTSASTAYLQISSLKAEDTAVYFCANYGNYWFAYWGQGTLVTVSS VL: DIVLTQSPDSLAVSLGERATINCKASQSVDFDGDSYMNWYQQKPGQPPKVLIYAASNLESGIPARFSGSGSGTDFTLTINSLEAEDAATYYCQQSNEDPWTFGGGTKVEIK

1. 1.76
2. 1.62

This collection of values is drawn from patent US7657380.
